System: Amaranthus
Experiment: Cytokinin activity in cotyledons assessed as dark induction of betacyanin synthesis at 100 uM relative to 6-benzylaminopurine
Assay type: functional
property: Activity

Consider the following illustrative entries.
compound | Activity
COc1cc(CNc2ncnc3c2ncn3C2CCCCO2)cc(OC)c1 (stereo unspecified) | 9%
COc1cccc(CNc2ncnc3c2ncn3C2CCCO2)c1 (stereo unspecified) | 123%
COc1cccc(OC)c1CNc1ncnc2c1ncn2C1CCCCO1 (stereo unspecified) | 13%
COc1ccc(CNc2ncnc3c2ncn3C2CCCO2)c(OC)c1OC (stereo unspecified) | 15%
COc1cccc(CNc2ncnc3c2ncn3C2CCCCO2)c1O (stereo unspecified) | 18%

Attention now shifts to the item below.
Record COc1ccc(CNc2ncnc3c2ncn3C2CCCO2)cc1 (stereo unspecified) , field Activity: 25%
